# studySystem: Fasciola hepatica TIM (FhTIM) (Fasciola hepatica, UniProt S4UI50)
# Sequence (S4UI50 entry or part of it): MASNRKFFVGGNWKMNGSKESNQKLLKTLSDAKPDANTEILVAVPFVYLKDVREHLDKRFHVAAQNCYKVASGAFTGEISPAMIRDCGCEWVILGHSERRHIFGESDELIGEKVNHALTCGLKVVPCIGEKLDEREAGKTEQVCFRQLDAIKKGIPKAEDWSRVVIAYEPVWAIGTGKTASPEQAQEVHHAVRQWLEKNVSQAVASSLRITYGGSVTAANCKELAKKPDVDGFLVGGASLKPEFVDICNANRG
# assayNotes: Inhibition of recombinant FhTIM, coupled enzyme assay
# Type: biochemical
# reportedConditions: Table 1S, screening of 340 compounds in FhTIM; table head prints no unit, µM per b8/b9; read-out: IC50
readoutName: IC50

Record "CCCCNC(=O)NN=Cc1no[n+]([O-])c1C" . Reported IC50: > 100 µM

Record "S=C(NN=CC=CC=Cc1cccs1)Nc1ccccc1" . Reported IC50: 50 to 100 µM

Record "CC(C=CC(=O)C=CC(C)=Cc1ccco1)=Cc1ccco1" . Reported IC50: > 100 µM

Record "C=CCN1C(=O)CSC1=NN=CC=Cc1cccs1" . Reported IC50: > 100 µM

Next compound, IC50 to be filled in.
Record "C=CCn1c(C)csc1=NN=Cc1ccco1" . Reported IC50: > 100 µM

====

# studySystem: UniProt S4UI50
# assayNotes: Inhibition of recombinant FhTIM, coupled enzyme assay
# Format: biochemical
# reportedConditions: recombinant FhTIM, 1 h incubation with compound at 37 °C; read-out: IC50
# Procedure: Expression and purification of proteins: FhTIM, RabbitTIM and HsTIM were expressed in Escherichia coli and purified as described in the literature[31],[37]. […] Enzymatic activity was determined following the conversion of glyceraldehydes-3-phosphate into dihydroxyacetone phosphate in a coupled enzyme assay. The decrease in absorbance at 340 nm was followed in a multiplate reader VarioskanTM Flash Multimode Reader (Thermo ScientificTM, Waltham, MA, USA) at 38 °C. […]
# IC50 per record follows
Give your result in µM as a bare value.

Record "O=C1C(=Cc2ccc([N+](=O)[O-])cc2)C(=O)N(CCc2ccccc2)S(=O)(=O)N1CCc1ccccc1" . Reported IC50: 7

Record "C=CCn1c(-c2ccc(Cl)cc2)csc1=NN=CC=Cc1ccc([N+](=O)[O-])s1" . Reported IC50: 60

Record CSc1nc2cc(Cl)c(Oc3cccc(Cl)c3Cl)cc2[nH]1 [Compound 1278, triclabendazole, reference compound] . Reported IC50: 7

Record "O=C1C(=Cc2ccc([N+](=O)[O-])s2)C(=O)N(Cc2ccccc2)S(=O)(=O)N1Cc1ccccc1" . Reported IC50: 25

Record "CN(C)CCCNS(=O)(=O)NCCCN(C)C" . Reported IC50: 50

Record "CCCCCCN1C(=O)C(=Cc2ccc([N+](=O)[O-])cc2)C(=O)N(CCCCCC)S1(=O)=O" . Reported IC50: 5

Record "O=C(C=Cc1ccc2ccccc2c1)c1c(O)ccc2ccccc12" . Reported IC50: 50

Record "[O-][n+]1c2ccc(O)cc2[n+]([O-])c2cc(Cl)c(Cl)cc21" . Reported IC50: 25

Record "S=C(NN=CC=CC=Cc1cccs1)Nc1ccccc1" . Reported IC50: 79

Record "CCCCN1C(=O)C(=Cc2ccc([N+](=O)[O-])s2)C(=O)N(CCCC)S1(=O)=O" . Reported IC50: 15

Record "Nc1ccc2nc3ccc(F)cc3nc2c1" . Reported IC50: 50

Record "O=C1C(=Cc2ccc([N+](=O)[O-])o2)C(=O)N(Cc2ccccc2)S(=O)(=O)N1Cc1ccccc1" . Reported IC50: 5

====

# Tested on: S. mansoni somules
# assayNotes: S. mansoni somules phenotypic screen in vitro
# Assay type: cell-based, Schistosoma mansoni
# reportedConditions: Table 2S, 10 uM, 3d
# Method: The NMRI isolate of S. mansoni was maintained by passage through Biomphalaria glabrata snails and 3–5 week-old, female Golden Syrian hamsters (Charles River, San Diego, CA) as intermediate and definite hosts, respectively. A dose of 600 infective larvae (cercariae) was used to infect hamsters. […] Phenotypic screens with somules were performed as described[5],[50],[51]. […] Somules phenotypes were recorded every 24 h up to 72 h using an inverted microscope (Zeiss Axiovert 40 C). […]
# SOMULES SEVERITY SCORE per record follows

Record "Cc1ccc(-c2nsc(S(=O)(=O)c3ccc(C)cc3)n2)cc1" . Reported SOMULES SEVERITY SCORE: 4

====

# IC50 per record follows
# studySystem: Fasciola hepatica TIM (FhTIM) (Fasciola hepatica, UniProt S4UI50)
# assayNotes: Inhibition of recombinant FhTIM, coupled enzyme assay
# Format: biochemical
# reportedConditions: Table 1S, screening of 340 compounds in FhTIM; table head prints no unit, µM per b8/b9; read-out: IC50

Record C=CCN1C(=O)CSC1=NN=Cc1ccc2c(c1)[n+]([O-])c(-c1ccccc1)c(C(=O)Nc1ccccc1)[n+]2[O-] [Compound 303] . Reported IC50: > 100 µM

Record O=C(CBr)c1csc(=NN=Cc2ccccc2)n1-c1ccccc1 [Compound 775] . Reported IC50: > 100 µM

Record CC(=O)Nc1ccc(C=NO)cc1 [Compound 1106] . Reported IC50: > 100 µM

Record C=CCn1c(C)csc1=NN=Cc1ccc2ccccc2c1 [Compound 904] . Reported IC50: > 100 µM

Record O=[N+]([O-])c1ccc2c(c1)c(OCc1ccccc1)nn2CCCCCBr [Compound 518] . Reported IC50: 100 µM

Record Cc1ccc(/C=C/C=C/C(=O)/C=C/C=C/c2ccc(C)o2)o1 [Compound 1108] . Reported IC50: > 100 µM

Record NC1=NS(=O)(=O)N=C(N)C1 [Compound 126] . Reported IC50: 100 µM

Record NN1CCSCC1 [Compound 616] . Reported IC50: > 100 µM

Others:
Record S=C(NN=Cc1cccs1)Nc1ccccc1 [Compound 279] . Reported IC50: > 100 µM

Record C=CCn1c(C(=O)CN2CCN(CC=Cc3ccccc3)CC2)csc1=NN=CC=Cc1ccco1 [Compound 1112] . Reported IC50: > 100 µM

Record N#Cc1c2ccccc2[n+]([O-])n1C/C=C/c1ccccc1 [Compound 500] . Reported IC50: > 100 µM

Record C(=NN=c1scc(-c2ccccc2)n1-c1ccccc1)c1ccccc1 [Compound 270] . Reported IC50: > 100 µM

Record CCCCNS(=O)(=O)NCCCC [Compound 123] . Reported IC50: > 100 µM

====

# studySystem: UniProtKB S4UI50
# assayNotes: Microscale thermophoresis (MST) binding to FhTIM
# reportedConditions: abstract
readoutName: Kd
Returns: string containing the number followed by the unit.

Record "Cc1ccc(-c2nsc(S(=O)(=O)c3ccc(C)cc3)n2)cc1" . Reported Kd: 0.066 µM

====

# SOMULES SEVERITY SCORE per record follows
# System: S. mansoni somules
# assayNotes: S. mansoni somules phenotypic screen in vitro
# Format: cell-based, Schistosoma mansoni
# reportedConditions: Table 2S, 10 uM, 3d
Respond using a number only.

// SOMULES SEVERITY SCORE (S. mansoni somules) for "O=C1C(=Cc2ccc([N+](=O)[O-])s2)C(=O)N(Cc2ccccc2)S(=O)(=O)N1Cc1ccccc1" = 4

Others:
// SOMULES SEVERITY SCORE (S. mansoni somules) for "C=CCn1c(-c2ccc(Cl)cc2)csc1=NN=CC=Cc1ccc([N+](=O)[O-])s1" = 4

// SOMULES SEVERITY SCORE (S. mansoni somules) for "O=C1C(=Cc2ccc([N+](=O)[O-])cc2)C(=O)N(CCc2ccccc2)S(=O)(=O)N1CCc1ccccc1" = 0

// SOMULES SEVERITY SCORE (S. mansoni somules) for "C=CCN1C(=O)CSC1=NN=Cc1ccc2c(c1)[n+]([O-])c(-c1ccccc1)c(C(=O)Nc1ccccc1)[n+]2[O-]" = 4

====

# studySystem: Fasciola hepatica TIM (FhTIM) (Fasciola hepatica, UniProt S4UI50)
# assayNotes: Inhibition of recombinant FhTIM, coupled enzyme assay
# Type: biochemical
# reportedConditions: Table 1S, screening of 340 compounds in FhTIM; table head prints no unit, µM per b8/b9; read-out: IC50
# Method: Expression and purification of proteins: FhTIM, RabbitTIM and HsTIM were expressed in Escherichia coli and purified as described in the literature[31],[37]. […] Enzymatic activity was determined following the conversion of glyceraldehydes-3-phosphate into dihydroxyacetone phosphate in a coupled enzyme assay. The decrease in absorbance at 340 nm was followed in a multiplate reader VarioskanTM Flash Multimode Reader (Thermo ScientificTM, Waltham, MA, USA) at 38 °C. […]
# IC50 per record follows

Example compounds with recorded IC50:
// IC50 (Fasciola hepatica TIM (FhTIM) (Fasciola hepatica, UniProt S4UI50)) for "C=CCNC(=S)NN=Cc1ccc(O)cc1" = > 100 µM

// IC50 (Fasciola hepatica TIM (FhTIM) (Fasciola hepatica, UniProt S4UI50)) for "CCOC(=O)C=Cc1ccc([N+](=O)[O-])o1" = > 100 µM

// IC50 (Fasciola hepatica TIM (FhTIM) (Fasciola hepatica, UniProt S4UI50)) for "O=S(=O)(O)c1ccc(C=NN=c2scc(-c3csc(=NN=Cc4ccc(S(=O)(=O)O)o4)n3-c3ccccc3)n2-c2ccccc2)o1" = > 100 µM

Others:
// IC50 (Fasciola hepatica TIM (FhTIM) (Fasciola hepatica, UniProt S4UI50)) for "C=CCNC(=S)NN=CC=Cc1ccc([N+](=O)[O-])s1" = > 100 µM

// IC50 (Fasciola hepatica TIM (FhTIM) (Fasciola hepatica, UniProt S4UI50)) for "C=CCn1c(-c2ccc(Cl)cc2)csc1=NN=Cc1ccc([N+](=O)[O-])s1" = > 100 µM

// IC50 (Fasciola hepatica TIM (FhTIM) (Fasciola hepatica, UniProt S4UI50)) for "CN1CC(=Cc2ccc(S(=O)(=O)O)o2)C(=O)C(=Cc2ccc(S(=O)(=O)O)o2)C1" = > 100 µM

// IC50 (Fasciola hepatica TIM (FhTIM) (Fasciola hepatica, UniProt S4UI50)) for CCCN(CCCCCn1nc(OCc2ccccc2)c2cc([N+](=O)[O-])ccc21)CCC(C)C1CC=C(C)CC1 (stereo not drawn) = > 100 µM

// IC50 (Fasciola hepatica TIM (FhTIM) (Fasciola hepatica, UniProt S4UI50)) for "Cc1nnc[n+]([O-])c1C=Cc1ccc(N(C)C)cc1" = > 100 µM

// IC50 (Fasciola hepatica TIM (FhTIM) (Fasciola hepatica, UniProt S4UI50)) for O=C1CCCC2=C1C(c1cccc(Br)c1)c1ccc3ccccc3c1N2 (stereo not drawn) = > 100 µM
